Exercise: state measured CC50 for each of the molecules provided.
# Tested on: H-MEC-1
# protocol_summary: Inhibition of cells growth by colorimetric assay (SRB), H-MEC-1
# Assay type: cell-based
# particulars: Homo sapiens, HMEC-1, 48 h, read-out: LC50, H-MEC-1, 48 hours exposure, SRB
Report as a plain number; the unit µM is understood.

Recorded result, COc1c(C)cc2c(c1O)[C@@H]1C3[C@@H]4SC[C@]5(NC(C)Cc6c5[nH]c5ccc(F)cc65)C(=O)COC[C@@H](c5c6c(c(C)c(OC(C)=O)c54)OCO6)N3[C@@H](O)[C@H](C2)N1C (stereo partly shown) , CC50: 12.7

Item: COc1c(C)cc2c(c1O)[C@@H]1C3[C@@H]4SC[C@]5(NCCc6c5[nH]c5ccc(F)cc65)C(=O)COC[C@@H](c5c6c(c(C)c(OC(C)=O)c54)OCO6)N3[C@@H](O)[C@H](C2)N1C (stereo partly shown) | CC50: 12.9

For record COc1c(C)cc2c(c1O)[C@@H]1C3[C@@H]4SC[C@]5(NCCc6c5[nH]c5c(C)cccc65)C(=O)COC[C@@H](c5c6c(c(C)c(OC(C)=O)c54)OCO6)N3[C@@H](O)[C@H](C2)N1C (stereo partly shown) the listed CC50 is 13

Input COc1c(C)cc2c(c1O)[C@@H]1C3[C@@H]4SC[C@]5(NC(C)Cc6c5[nH]c5ccc(O)cc65)C(=O)COC[C@@H](c5c6c(c(C)c(OC(C)=O)c54)OCO6)N3[C@@H](O)[C@H](C2)N1C (stereo partly shown) . Output CC50: 12.7

Origin of values: patent US7763615B2
